test system: MDA-MB-468 breast; assay: NCI-60 one-dose screen, 48 h (100 = growth as untreated, 0 = no growth, -100 = all killed); settings: 10 µM unless noted
This is part of a sample that, as a whole, favours compounds with a hit. Of some 83,000 tested, about 20% had one in any assay.
value_kind: growth (%)
The reply should be a number in %, with the unit left off.

Which growth is reported for this molecule? CO[C@H](C(=O)N[C@@H](CCCCNC(=O)OCc1ccccc1)C(=O)OC(C)(C)C)[C@@H]1Cc2cc3cc(OC4CC(OC5CC(O)C(O)C(C)O5)C(O)C(C)O4)c(C)c(O)c3c(O)c2C(=O)[C@H]1OC1CC(OC2CC(OC3CC(C)(O)C(O)C(C)O3)C(O)C(C)O2)C(O)C(C)O1 (some centres undefined)
-37.5
